Measured MEAN CpLDH INHIBITION (%), listed per entry.
Biological target: recombinant CpLDH protein (Cryptosporidium parvum, UniProt Q9GT92, F198L/K295E/R251K)
property name: MEAN CpLDH INHIBITION (%)

| compound | property name | measured result |
| --- | --- | --- |
| C=C1C(=O)C2=CC1CCC(=O)C1(C)CCC(OC(C)=O)C(C)(C)C1CC2O (stereo not shown) | MEAN CpLDH INHIBITION (%) | -1.17 |
| CN(C)c1ccc2c(SCC(=O)OCC(=O)[C@@]3(O)CC[C@H]4[C@@H]5CCC6=CC(=O)C=C[C@]6(C)[C@H]5C(=O)C[C@@]43C)c3ccc(N(C)C)cc3nc2c1 | MEAN CpLDH INHIBITION (%) | -16.37 |
| Cc1[nH]c(=O)nc(N/N=C/c2ccc(Cl)cc2)c1C(=O)Nc1ccc(Cl)cc1 | MEAN CpLDH INHIBITION (%) | -0.76 |
| CCN(CC)CCOC(=O)Cc1cccc2c(=O)cc(-c3ccccc3)oc12 | MEAN CpLDH INHIBITION (%) | -3.81 |

====

// values below are MEAN CpLDH INHIBITION (%); system is recombinant CpLDH protein (Cryptosporidium parvum, UniProt Q9GT92, F198L/K295E/R251K)

| compound | system name | MEAN CpLDH INHIBITION (%) |
| --- | --- | --- |
| CCCn1c(=O)c2ccccc2[n+]2c(-c3ccc([N+](=O)[O-])cc3)csc12.[Br-] [NSC657603] | recombinant CpLDH protein (Cryptosporidium parvum, UniProt Q9GT92, F198L/K295E/R251K) | -45.82 |
| C[C@@H]1C[C@H]2OC(=O)[C@@]3(C)CCC[C@@](C)([C@@H]23)[C@@]1(O)CCc1ccoc1 [NSC36693] | recombinant CpLDH protein (Cryptosporidium parvum, UniProt Q9GT92, F198L/K295E/R251K) | -16.69 |
| C/C(=N\Nc1nc2ccccc2s1)c1ccncn1 [NSC693632] | recombinant CpLDH protein (Cryptosporidium parvum, UniProt Q9GT92, F198L/K295E/R251K) | 0.06 |
| CCCCOCc1cc(CN2CCN(C)CC2)c(O)c2ncccc12 [NSC20514] | recombinant CpLDH protein (Cryptosporidium parvum, UniProt Q9GT92, F198L/K295E/R251K) | -30.20 |
| Cc1ccc(S(=O)(=O)NC(=O)NC2=NC(C)(C)N(c3ccc(Cl)c(Cl)c3)C(N)=N2)cc1 [NSC603624] | recombinant CpLDH protein (Cryptosporidium parvum, UniProt Q9GT92, F198L/K295E/R251K) | -12.73 |
| Cc1c2ccncc2c(C)c2c1sc1ccccc12 [NSC119686] | recombinant CpLDH protein (Cryptosporidium parvum, UniProt Q9GT92, F198L/K295E/R251K) | -46.09 |
| O=C(O)CC(S)C(=O)O (stereo not drawn) [NSC41809] | recombinant CpLDH protein (Cryptosporidium parvum, UniProt Q9GT92, F198L/K295E/R251K) | -14.35 |
| CN(NC1=NCCO1)c1ccc2ccccc2c1 [NSC664286] | recombinant CpLDH protein (Cryptosporidium parvum, UniProt Q9GT92, F198L/K295E/R251K) | -26.92 |
| OC(CN1CCCCC1)c1ccc(/C=C/c2ccc(Cl)cc2)cc1 (stereo not drawn) [NSC26040] | recombinant CpLDH protein (Cryptosporidium parvum, UniProt Q9GT92, F198L/K295E/R251K) | -70.84 |

Data origin, for the record: paper PMC6687188
